Hello, the source for this data is EPA's ToxValDB 9.5, in case you need it.

Provide the reported LD50 of each item.
- Test system: Colinus virginianus
- Condition Info: acute; oral; mortality

Looking up O=c1c2cc(F)ccc2nc(-n2cncn2)n1-c1ccc(Cl)cc1Cl [Fluquinconazole] , I see its LD50 listed as > 2000 mg/kg-day

Looking up Nc1ccc(Cl)c(Cl)c1 [3,4-Dichloroaniline] , I see its LD50 listed as 99.1 mg/kg-day

Looking up c1ccc(Nc2ccccc2)cc1 [Diphenylamine] , I see its LD50 listed as > 2250 mg/kg-day

Looking up CC1=CC1 [1-Methylcyclopropene] , I see its LD50 listed as > 81 mg/kg-day

Looking up Oc1cccc2cccnc12 [8-Hydroxyquinoline] , I see its LD50 listed as 311 mg/kg

Looking up CC(C)C1C2CCC1c1c(NC(=O)c3cn(C)nc3C(F)F)cccc12 (configuration not stated) [Isopyrazam] , I see its LD50 listed as > 2000 mg/kg-day

Looking up ClC=CCCl [1,3-Dichloropropene] , I see its LD50 listed as 92 mg/kg-day

* * *

Provide the reported LD50 of each item.
- System: Rattus norvegicus
- Condition Info: acute; oral; mortality
# value in mg/kg-day; strip the unit string

Looking up CC(C)C1C2CCC1c1c(NC(=O)c3cn(C)nc3C(F)F)cccc12 (centres undefined) [Isopyrazam] , I see its LD50 listed as 2000

Looking up CCCCCCCCCCO [1-Decanol] , I see its LD50 listed as 4720

Looking up NC(N)=O [Urea] , I see its LD50 listed as 14300

Looking up ClC=CCCl [1,3-Dichloropropene] , I see its LD50 listed as 130

Looking up CCOc1ccc2c(c1)C(C)=CC(C)(C)N2 [Ethoxyquin] , I see its LD50 listed as 1730

* * *

- Test system: Pontoscolex corethrurus
- Condition Info: acute; mortality
Please use y for LC50 under 200 mg/kg and n for everything else, ties included.

Exercise: Lab log: compare recorded LC50 with 200 mg/kg; is it strictly lower for c1cnc2c(n1)CCCC2 [5,6,7,8-Tetrahydroquinoxaline] ?
Key: n

Exercise: Lab log: compare recorded LC50 with 200 mg/kg; is it strictly lower for "CCc1ncc(C)nc1CC" ?
Key: n

Exercise: Lab log: compare recorded LC50 with 200 mg/kg; is it strictly lower for "CCc1nccnc1OC" ?
Key: n

Exercise: Lab log: compare recorded LC50 with 200 mg/kg; is it strictly lower for "CCC=C(C)C(=O)O" ?
Key: n

Exercise: Lab log: compare recorded LC50 with 200 mg/kg; is it strictly lower for "Cc1cccc2nccnc12" ?
Key: n

Exercise: Lab log: compare recorded LC50 with 200 mg/kg; is it strictly lower for COc1cc(CCC(C)=O)ccc1O [4-(4-Hydroxy-3-methoxyphenyl)-2-butanone] ?
Key: n

Exercise: Lab log: compare recorded LC50 with 200 mg/kg; is it strictly lower for "CCc1nc(C)cs1" ?
Key: y

Exercise: Lab log: compare recorded LC50 with 200 mg/kg; is it strictly lower for CC/C=C\CCCCC=O [(Z)-Non-6-enal] ?
Key: y

* * *

- Tested on: Oncorhynchus mykiss
- Condition Info: acute; duration: 96 hours; mortality
Provide the reported LC50 of each item.

Looking up O=[N+]([O-])/N=C1\NCCN1Cc1ccc(Cl)nc1 [Imidacloprid] , I see its LC50 listed as > 83 mg/L

Looking up O=C1O[C@H]([C@@H](O)CO)C(O)=C1O [L-Ascorbic acid] , I see its LC50 listed as 1020 mg/L

Looking up c1ccc(Nc2ccccc2)cc1 [Diphenylamine] , I see its LC50 listed as 2.2 mg/L

Looking up CCOc1ccc2c(c1)C(C)=CC(C)(C)N2 [Ethoxyquin] , I see its LC50 listed as 18 mg/L

Looking up Oc1cccc2cccnc12 [8-Hydroxyquinoline] , I see its LC50 listed as 2 mg/L

Looking up CC[C@@]1([C@@H]2O[C@@H]([C@H]3O[C@@](O)(CO)[C@H](C)C[C@@H]3C)C[C@@H]2C)CC[C@H]([C@]2(C)CC[C@]3(C[C@H](O)[C@@H](C)[C@@H]([C@@H](C)[C@@H](OC)[C@H](C)C(=O)[O-])O3)O2)O1.[Na+] [Monensin sodium] , I see its LC50 listed as 1.88 mg/L

Looking up CC[C@@H](C(=O)O)[C@@H]1O[C@@H]([C@@H](C)[C@H](O)[C@H](C)C(=O)[C@H](CC)[C@H]2O[C@]3(C=C[C@@H](O)[C@]4(CC[C@@](C)([C@H]5CC[C@](O)(CC)[C@H](C)O5)O4)O3)[C@H](C)C[C@@H]2C)[C@@H](C)C[C@@H]1C [Narasin] , I see its LC50 listed as 2.23 mg/L

Looking up Cc1cc(C2CC2)nc(Nc2ccccc2)n1 [Cyprodinil] , I see its LC50 listed as 1.35 mg/L

Looking up CC1=CC1 [1-Methylcyclopropene] , I see its LC50 listed as > 0.966 mg/L
